target-entity: T1, full-length human GIPR with an N-terminal FLAG tag (human, UniProt P48546 22-466)
T1 sequence (looked up): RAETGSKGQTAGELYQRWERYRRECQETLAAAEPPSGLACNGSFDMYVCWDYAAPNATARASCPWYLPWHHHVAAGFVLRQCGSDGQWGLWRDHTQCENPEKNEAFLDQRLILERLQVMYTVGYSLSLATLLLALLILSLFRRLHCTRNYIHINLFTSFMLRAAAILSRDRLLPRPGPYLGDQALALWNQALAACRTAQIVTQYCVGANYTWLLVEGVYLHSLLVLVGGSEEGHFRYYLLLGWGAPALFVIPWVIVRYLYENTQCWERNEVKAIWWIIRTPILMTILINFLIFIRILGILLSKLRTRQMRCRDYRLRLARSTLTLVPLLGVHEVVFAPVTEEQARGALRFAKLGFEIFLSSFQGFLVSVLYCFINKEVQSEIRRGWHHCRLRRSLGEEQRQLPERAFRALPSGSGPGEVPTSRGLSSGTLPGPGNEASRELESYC
protocol-notes: cell-based or functional assay
Starred links: 1 amine or outer side, 2 acyl side, 3 side chain; linkers in the order of their positions; H or OH if unused. Non-standard residues stand in square brackets, D forms with d. Groups on a side chain read outwards from the residue. No end group written: not given here. *: point of attachment. C18 diacid = O=C(O)CCCCCCCCCCCCCCCCC(=O)*; γGlu = O=C(O)[C@H](CCC(=O)[*:2])N[*:1]; NMeY = CN[C@@H](Cc1ccc(O)cc1)C(=O)O; Aib = CC(C)(N)C(=O)O
Give measured Human GIPR cAMP EC50, HEK293T for each item. Keep answers brief.
One number for each entry, in pM.

Worked examples, 4 binders total:
YXEGTFISDYSIAXDRXAQXDFVNWLLAQQG (N-methyl Tyr 1; Aib at 2,17,20; Lys(G5-C18 diacid) at 14; C-terminal OH) [Compound No. 82] | 0.3
YXEGTFISDYSIAXDKXAQXDFVNWLLAQKG (N-methyl Tyr 1; Aib at 2,17,20; Lys(G5-C18 diacid) at 14; C-terminal OH) [Compound No. 76] | 0.6
YXEGTFISDYSIXXDRAAQXDFVEWLLAQRG (N-terminus H; Aib at 2,13,20; Lys(G5-C18 diacid) at 14; C-terminal OH) [Compound No. 145] | 1.8
[NMeY][Aib]EGTFISDYSIALDR[Aib]AQ[Aib]K([GGPAPAP-γGlu-C18 diacid])FVNWLLAQSPSSGAPPPS-OH [Compound No. 104] | 0.5

Provide reported Human GIPR cAMP EC50, HEK293T for each item, in the same order as listed.
1. YXEGTFISDYSIAXDRXAQXNFVNWLLAQSPG (N-methyl Tyr 1; Aib at 2,17,20; Lys(G5-C18 diacid) at 14; C-terminal OH) [Compound No. 114]
2. [NMeY][Aib]EGTFISDYSIAK([GGPAPAP-C18 diacid])DR[Aib]AQ[Aib]DFVNWLLAQSPSSGAPPPS-OH [Compound No. 105]

[0.1, 0.5]

Reference source for all entries: patent US20230143604A1
